# study.system: human hA2B receptors (Homo sapiens)
# Construct: host or cells: HEK 293 cells
# Sequence (P29275 whole entry): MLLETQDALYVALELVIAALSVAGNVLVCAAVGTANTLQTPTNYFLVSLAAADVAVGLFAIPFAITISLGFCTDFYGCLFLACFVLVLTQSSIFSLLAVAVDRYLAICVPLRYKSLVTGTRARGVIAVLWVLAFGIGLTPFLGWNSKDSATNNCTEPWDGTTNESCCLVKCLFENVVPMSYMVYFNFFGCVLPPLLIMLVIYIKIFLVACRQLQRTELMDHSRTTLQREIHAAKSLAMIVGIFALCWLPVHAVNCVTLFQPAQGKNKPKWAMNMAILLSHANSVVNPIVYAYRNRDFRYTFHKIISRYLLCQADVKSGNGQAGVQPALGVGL
# method.description: [^3H] DPCPX binding to human hA2B receptors expressed in HEK293 cells (antagonist radioligand)
parameter: Ki

Q) Consider the compound CCNC(=O)[C@H]1O[C@@H](n2cnc3c(NC(=O)Nc4ccc(S(=O)(=O)N(CCCl)CCCl)cc4)ncnc32)[C@H](O)[C@@H]1O [Compound 91] and give its measured Ki.
A) > 1000 nM

---

# study.system: human A2A adenosine receptors (Homo sapiens, UniProt P29274)
# Construct: expressed in transfected cells; host or cells: CHO cells
# Sequence (P29274 whole entry): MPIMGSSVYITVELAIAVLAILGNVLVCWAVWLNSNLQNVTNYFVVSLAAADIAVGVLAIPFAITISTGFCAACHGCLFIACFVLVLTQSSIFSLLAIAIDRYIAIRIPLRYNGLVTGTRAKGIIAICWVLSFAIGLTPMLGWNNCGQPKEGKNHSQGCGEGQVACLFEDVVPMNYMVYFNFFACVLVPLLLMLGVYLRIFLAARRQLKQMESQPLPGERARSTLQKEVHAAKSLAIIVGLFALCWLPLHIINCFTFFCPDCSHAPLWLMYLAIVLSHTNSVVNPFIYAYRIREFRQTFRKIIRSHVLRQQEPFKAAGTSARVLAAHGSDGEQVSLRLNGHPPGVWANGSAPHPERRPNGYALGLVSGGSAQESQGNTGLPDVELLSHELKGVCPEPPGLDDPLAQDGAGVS
# method.description: Displacement of [^3H]CGS21680 binding, human A2A adenosine receptors in CHO cells (agonist radioligand)
# condition.info: human A2A, CHO cells, [^3H]CGS21680; read-out: Ki(A2A). Displacement of [^3H]CGS21680 binding to human A2A adenosine receptors exp. in CHO cells.
parameter: Ki

Q) Consider the molecule C=CCN(C)S(=O)(=O)c1ccc(NC(=O)Nc2ncnc3c2ncn3[C@@H]2O[C@H](C(=O)NCC)[C@@H](O)[C@H]2O)cc1 [Compound 96] and give its measured Ki.
A) > 1 µM

Q) Consider the molecule CCNC(=O)[C@H]1O[C@@H](n2cnc3c(NC(=O)Nc4ccc(S(=O)(=O)N5CCCC5)cc4)ncnc32)[C@H](O)[C@@H]1O [Compound 90] and give its measured Ki.
A) > 1 µM

Q) Consider the molecule CCNC(=O)[C@H]1O[C@@H](n2cnc3c(NC(=O)Nc4ccc(S(=O)(=O)N(CC)CC)cc4)ncnc32)[C@H](O)[C@@H]1O [Compound 100] and give its measured Ki.
A) > 1 µM

Q) Consider the molecule CCNC(=O)[C@H]1O[C@@H](n2cnc3c(NC(=O)Nc4ccc(S(=O)(=O)N(C)C)cc4)ncnc32)C(O)C1O (some centres unmarked) [Compound 98] and give its measured Ki.
A) > 1 µM

Next:
Q) Consider the molecule CCNC(=O)[C@H]1O[C@@H](n2cnc3c(NC(=O)Nc4ccc(S(=O)(=O)NC5CC5)cc4)ncnc32)[C@H](O)[C@@H]1O [Compound 89] and give its measured Ki.
A) > 1 µM

Q) Consider the molecule CCNC(=O)[C@H]1O[C@@H](n2cnc3c(NC(=O)Nc4ccc(S(=O)(=O)Nc5ccc(OC)cc5)cc4)ncnc32)[C@H](O)[C@@H]1O [Compound 88] and give its measured Ki.
A) > 1 µM

Q) Consider the molecule CCCCCNS(=O)(=O)c1ccc(NC(=O)Nc2ncnc3c2ncn3[C@@H]2O[C@H](C(=O)NCC)[C@@H](O)[C@H]2O)cc1 [Compound 87] and give its measured Ki.
A) > 1 µM

Q) Consider the molecule CCNC(=O)[C@H]1O[C@@H](n2cnc3c(NC(=O)Nc4ccc(S(=O)(=O)NC56CC7CC(CC(C7)C5)C6)cc4)ncnc32)[C@H](O)[C@@H]1O [Compound 93] and give its measured Ki.
A) > 1 µM

Q) Consider the molecule CCNC(=O)[C@H]1O[C@@H](n2cnc3c(NC(=O)Nc4ccc(S(=O)(=O)NCc5ccccc5)cc4)ncnc32)[C@H](O)[C@@H]1O [Compound 86] and give its measured Ki.
A) > 1 µM

Q) Consider the molecule CCNC(=O)[C@H]1O[C@@H](n2cnc3c(NC(=O)Nc4ccc(S(=O)(=O)NC(C)(C)C)cc4)ncnc32)[C@H](O)[C@@H]1O [Compound 92] and give its measured Ki.
A) > 1 µM

Q) Consider the molecule CCCN(CCC)S(=O)(=O)c1ccc(NC(=O)Nc2ncnc3c2ncn3[C@@H]2O[C@H](C(=O)NCC)[C@@H](O)[C@H]2O)cc1 [Compound 102] and give its measured Ki.
A) > 1 µM
